target-of-assay: T1, biotinylated CD3 epsilon:delta heterodimer protein (Amsbio AMS.CDD-H52WO) (Homo sapiens (Human), UniProt P07766 23-126; P04234 22-105)
T1 construct: also called CD3 heterodimer
protocol-details: BLI (Octet), CD3 on SA sensor, Fab analyte;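 further: biolayer interferometry with biotinylated CD3 epsilon:delta captured on streptavidin sensors, Fab analyte at several concentrations up to 300 nM, 100 s association then 300 s dissociation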
pKd: −log10 of the molar value.
Property: pKd; scope: individual binders

binder	pKd
huSP34.8.6 Fab-HF (Fab, V domains shown, also called HC8+LC6) VH: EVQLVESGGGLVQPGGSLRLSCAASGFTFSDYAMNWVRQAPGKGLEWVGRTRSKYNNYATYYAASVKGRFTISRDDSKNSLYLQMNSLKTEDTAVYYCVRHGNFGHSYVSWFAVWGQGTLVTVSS VL: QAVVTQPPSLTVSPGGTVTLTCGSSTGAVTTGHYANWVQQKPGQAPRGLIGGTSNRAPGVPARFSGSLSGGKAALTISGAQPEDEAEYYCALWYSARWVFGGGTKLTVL	6.43
huSP34.5.2 Fab-HF (Fab, V domains shown, also called HC5+LC2) VH: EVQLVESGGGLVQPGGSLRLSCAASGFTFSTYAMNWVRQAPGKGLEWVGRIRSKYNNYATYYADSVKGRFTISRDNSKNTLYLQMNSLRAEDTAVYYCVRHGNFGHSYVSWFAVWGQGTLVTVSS VL: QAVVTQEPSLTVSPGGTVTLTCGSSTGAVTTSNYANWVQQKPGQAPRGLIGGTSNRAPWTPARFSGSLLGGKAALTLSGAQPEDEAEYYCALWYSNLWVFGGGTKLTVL	5.92
huSP34.10.2 Fab-HF (Fab, V domains shown, also called HC10+LC2) VH: EVQLVESGGGLVQPGGSLRLSCAASGFTFSDYAMNWVRQAPGKGLEWVGRTRSKYNSYATYYAASVKGRFTISRDDSKNSLYLQMNSLKTEDTAVYYCVRHGNFGHSYVSWFAVWGQGTLVTVSS VL: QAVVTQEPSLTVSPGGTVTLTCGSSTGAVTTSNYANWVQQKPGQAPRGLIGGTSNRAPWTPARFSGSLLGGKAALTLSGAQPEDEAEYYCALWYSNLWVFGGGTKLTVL	6.51
huSP34.10.6 Fab-HF (Fab, V domains shown, also called HC10+LC6) VH: EVQLVESGGGLVQPGGSLRLSCAASGFTFSDYAMNWVRQAPGKGLEWVGRTRSKYNSYATYYAASVKGRFTISRDDSKNSLYLQMNSLKTEDTAVYYCVRHGNFGHSYVSWFAVWGQGTLVTVSS VL: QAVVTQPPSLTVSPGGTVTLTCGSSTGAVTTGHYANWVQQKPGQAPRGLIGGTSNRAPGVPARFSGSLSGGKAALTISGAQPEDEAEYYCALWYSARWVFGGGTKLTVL	6.50
huSP34.3.2 Fab-HF (Fab, V domains shown, also called HC3+LC2) VH: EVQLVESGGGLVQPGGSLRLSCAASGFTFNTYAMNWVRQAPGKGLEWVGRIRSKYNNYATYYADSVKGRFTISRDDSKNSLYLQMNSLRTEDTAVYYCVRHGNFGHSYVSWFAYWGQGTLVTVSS VL: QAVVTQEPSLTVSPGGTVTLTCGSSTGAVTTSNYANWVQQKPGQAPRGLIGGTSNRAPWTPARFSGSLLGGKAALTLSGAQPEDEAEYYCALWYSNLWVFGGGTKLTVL	7.60
